- ASSAY SYSTEM: ALK tyrosine kinase receptor (Homo sapiens);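 note: values are mean percent inhibition of ALK, screened as part of the GSK PKIS panel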
- SETTINGS: at 1 µM
Consider the following partition of reported inhibition into named classes: low band = under 2%, middle band = from 2% up to 5%, high band = 5% and over

Worked cases, answers included:
>>> df
                                   molecule   class_name
0  CN(c1ccc(NC(=O)Nc2c(Cl)cccc2Cl)cc1)c1ccnc(Nc2cccc(CS(C)(=O)=O)c2)n1  middle band
1  COc1ccc2cc(-c3c(-c4ccncc4)nc(-c4ccc([S+](C)[O-])cc4C)n3C)ccc2c1 (centres undefined)  middle band
2  COc1cc(Nc2ncc3c(C)nc(-c4cccc(Oc5ccccc5)c4)n3n2)cc(OC)c1OC    high band
3  CN1CCN(CCCNc2nc3ccc(Oc4ccc(NC(=O)Nc5cc(C(F)(F)F)ccc5F)cc4)cc3[nH]2)CC1     low band
4  Fc1ccc(-c2ncn(C3CCNCC3)c2-c2ccnc(Oc3ccc(F)c(F)c3)n2)cc1     low band
5  c1ccc(-c2n[nH]cc2-c2ccnc(-c3ccc(OCCN4CCOCC4)cc3)c2)nc1  middle band

[ask] Textbook exercise: identify the category of the molecule given here, COC(=O)Nc1nc2ccc(Sc3ccc(NC(=O)Nc4cc(C(F)(F)F)ccc4F)cc3)cc2[nH]1 , according to its measured value.
[reply] middle band

[ask] What about this molecule? C[C@@H](Oc1cc(-n2cnc3ccc(OCC4CCN(C)CC4)cc32)sc1C(N)=O)c1ccccc1Cl
[reply] high band

---

- ASSAY SYSTEM: Platelet-derived growth factor receptor alpha (Homo sapiens) (UniProt P16234)
- Sequence (P16234 whole entry): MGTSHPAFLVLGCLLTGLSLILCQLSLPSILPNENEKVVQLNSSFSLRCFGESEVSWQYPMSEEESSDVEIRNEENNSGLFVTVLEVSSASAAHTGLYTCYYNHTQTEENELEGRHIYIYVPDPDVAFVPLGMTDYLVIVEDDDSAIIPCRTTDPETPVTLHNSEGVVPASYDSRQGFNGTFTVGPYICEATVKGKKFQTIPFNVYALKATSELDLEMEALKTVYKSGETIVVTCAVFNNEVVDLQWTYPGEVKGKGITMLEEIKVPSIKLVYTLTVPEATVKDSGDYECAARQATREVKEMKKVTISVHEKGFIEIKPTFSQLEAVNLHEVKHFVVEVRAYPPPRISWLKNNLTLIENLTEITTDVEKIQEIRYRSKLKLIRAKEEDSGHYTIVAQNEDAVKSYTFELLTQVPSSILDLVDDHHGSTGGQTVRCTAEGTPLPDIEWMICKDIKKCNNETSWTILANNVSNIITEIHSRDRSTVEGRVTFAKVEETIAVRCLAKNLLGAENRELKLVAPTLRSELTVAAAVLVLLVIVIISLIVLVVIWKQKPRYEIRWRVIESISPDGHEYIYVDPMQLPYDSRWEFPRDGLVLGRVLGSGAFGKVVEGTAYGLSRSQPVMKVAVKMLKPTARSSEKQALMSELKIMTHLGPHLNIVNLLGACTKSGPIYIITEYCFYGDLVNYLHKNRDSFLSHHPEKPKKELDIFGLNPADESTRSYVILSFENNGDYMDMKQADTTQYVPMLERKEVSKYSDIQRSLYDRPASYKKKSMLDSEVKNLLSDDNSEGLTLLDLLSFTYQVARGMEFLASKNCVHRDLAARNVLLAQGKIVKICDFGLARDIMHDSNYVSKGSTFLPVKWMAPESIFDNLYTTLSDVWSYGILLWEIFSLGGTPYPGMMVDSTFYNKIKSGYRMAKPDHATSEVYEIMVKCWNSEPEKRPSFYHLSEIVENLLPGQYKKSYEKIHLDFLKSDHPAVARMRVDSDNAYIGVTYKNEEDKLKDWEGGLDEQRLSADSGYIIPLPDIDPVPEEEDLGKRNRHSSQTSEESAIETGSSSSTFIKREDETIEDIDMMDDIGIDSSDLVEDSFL
- SETTINGS: at 0.1 µM
- Description: GSK_PKIS: PDGFRA mean inhibition at 0.1 uM [Nanosyn]
Label scheme for inhibition: lower than 8% is class 0, 8% and above is class 1.

Worked cases, answers included:
>>> print(df.to_string())
                                   compound  class_name
0  Fc1ccc(-c2ncn(C3CCNCC3)c2-c2ccnc(Oc3ccc4c(c3)OCO4)n2)cc1     class 1
1  CCc1ccc(Oc2nccc(-c3c(-c4ccc(F)cc4)ncn3C3CCNCC3)n2)cc1     class 0
2  COc1cc(Nc2ncc3c(C)nc(-c4cccc(Oc5ccccc5)c4)n3n2)cc(OC)c1OC     class 0
3  CS(=O)(=O)CCNCc1cc(-c2cc3c(Nc4ccc(OCc5cccc(F)c5)c(Cl)c4)ncnc3s2)cs1     class 1
4     COc1cc(Nc2ncc(-c3ccccc3)o2)cc(OC)c1OC     class 1

From here, focus on the item given below.
[ask] Hi, just wondering whether CCS(=O)(=O)c1ccc(OC)c(Nc2ncc(-c3cccc(-c4ccccc4F)c3)o2)c1 shows inhibition of 8% or higher.
[reply] class 1

---

Overview of reported inhibition across a group of compounds:
- ASSAY SYSTEM: Serine/threonine-protein kinase Nek6 (Homo sapiens) (UniProt Q9HC98);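 note: values are the mean percent inhibition of NEK6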
- Sequence (Q9HC98 whole entry): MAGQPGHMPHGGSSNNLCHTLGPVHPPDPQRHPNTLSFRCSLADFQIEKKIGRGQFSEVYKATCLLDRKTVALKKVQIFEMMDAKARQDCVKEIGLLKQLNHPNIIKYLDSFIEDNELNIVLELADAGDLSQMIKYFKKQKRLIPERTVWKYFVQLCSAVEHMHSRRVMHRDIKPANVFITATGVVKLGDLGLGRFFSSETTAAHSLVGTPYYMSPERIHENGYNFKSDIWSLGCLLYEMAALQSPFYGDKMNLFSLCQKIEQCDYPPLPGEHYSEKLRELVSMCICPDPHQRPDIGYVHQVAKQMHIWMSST
- SETTINGS: at 0.1 µM
Answer format: numeric, % implied, no suffix.

These solved cases illustrate the format of a correct answer.
                                   compound  data_value
0  COc1ccc(C2=C(N3CCc4ccccc43)C(=O)NC2=O)cc1        2.74
1  NS(=O)(=O)c1ccc(Nc2cc(-c3ccc(O)c(F)c3)n[nH]2)cc1       -4.94
2  C/C(Nc1ccc(S(N)(=O)=O)cc1)=C1/C(=O)Nc2ccccc21       -4.26
3  O=C(Nc1n[nH]c2cc(-c3cc(F)ccc3F)ccc12)C1CC1        1.92
4  Fc1ccc(-c2ncn(C3CCNCC3)c2-c2ccnc(Oc3ccc(F)c(F)c3)n2)cc1        0.84
5    O=C1Nc2ccccc2/C1=C/Nc1ccc(-n2cncn2)cc1        4.59
6  COc1ccc2ncn(-c3cc(O[C@H](C)c4ccccc4Cl)c(C(N)=O)s3)c2c1        0.15
7  FC(F)(F)c1cccc(Nc2nccc(-c3cnn4nc(-c5ccccc5)ccc34)n2)c1       -0.41

[ask] State the recorded inhibition for this entry: O=C(Nc1ccc(Oc2ccc3[nH]c(NC(=O)c4ccccc4)nc3c2)cc1)Nc1cc(C(F)(F)F)ccc1F
[reply] 3.73

[ask] What about this compound? Fc1ccc(-c2nc3n(c2-c2ccncc2)CCS3)cc1
[reply] 0.55

[ask] What about this compound? CN(C)CCCNc1nccc(-c2c(-c3ccc(F)cc3)nn3cc(C(F)(F)F)ccc23)n1
[reply] 1.82

[ask] What about this compound? C[C@@H](Oc1cc(-n2cnc3ccc(OCC4CCN(C)CC4)cc32)sc1C(N)=O)c1ccccc1Cl
[reply] 0.14

[ask] What about this compound? CCc1nccc2c1nc(-c1nonc1N)n2CC
[reply] 0.37

[ask] What about this compound? COc1ccc2cc(-c3c(-c4ccncc4)nc(-c4ccc([S+](C)[O-])cc4C)n3C)ccc2c1 (stereo not given)
[reply] 0.58

[ask] What about this compound? Fc1ccc(-c2ncn(C3CCNCC3)c2-c2ccnc(Oc3ccc4c(c3)OCO4)n2)cc1
[reply] 1.13

[ask] What about this compound? NCc1ccc(-n2c(-c3nonc3N)nc3cnccc32)cc1
[reply] 3.51

[ask] What about this compound? COc1cc(N2CCN(C(C)C)CC2)ccc1Nc1nc(Nc2ccc(F)cc2C(=O)NC[C@@H](O)CO)c2cc[nH]c2n1
[reply] 1.82

[ask] What about this compound? Cc1ccc(C(=O)NC(C)C)cc1-c1ccc(C(=O)NCC2CC2)cc1
[reply] -3.09

[ask] What about this compound? C[C@@H](Oc1cc(-n2cnc3ccc(OC4CCN(C)CC4)cc32)sc1C(N)=O)c1ccccc1Cl
[reply] -0.34

[ask] What about this compound? Fc1ccc(-c2ncn(C3CCNCC3)c2-c2ccnc(Oc3ccc(Oc4ccccc4)cc3)n2)cc1
[reply] -2.46

---

- ASSAY SYSTEM: Inhibitor of nuclear factor kappa-B kinase subunit alpha (Homo sapiens) (UniProt O15111);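 note: mean percent inhibition from GSK PKIS profiling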
- Sequence (whole entry): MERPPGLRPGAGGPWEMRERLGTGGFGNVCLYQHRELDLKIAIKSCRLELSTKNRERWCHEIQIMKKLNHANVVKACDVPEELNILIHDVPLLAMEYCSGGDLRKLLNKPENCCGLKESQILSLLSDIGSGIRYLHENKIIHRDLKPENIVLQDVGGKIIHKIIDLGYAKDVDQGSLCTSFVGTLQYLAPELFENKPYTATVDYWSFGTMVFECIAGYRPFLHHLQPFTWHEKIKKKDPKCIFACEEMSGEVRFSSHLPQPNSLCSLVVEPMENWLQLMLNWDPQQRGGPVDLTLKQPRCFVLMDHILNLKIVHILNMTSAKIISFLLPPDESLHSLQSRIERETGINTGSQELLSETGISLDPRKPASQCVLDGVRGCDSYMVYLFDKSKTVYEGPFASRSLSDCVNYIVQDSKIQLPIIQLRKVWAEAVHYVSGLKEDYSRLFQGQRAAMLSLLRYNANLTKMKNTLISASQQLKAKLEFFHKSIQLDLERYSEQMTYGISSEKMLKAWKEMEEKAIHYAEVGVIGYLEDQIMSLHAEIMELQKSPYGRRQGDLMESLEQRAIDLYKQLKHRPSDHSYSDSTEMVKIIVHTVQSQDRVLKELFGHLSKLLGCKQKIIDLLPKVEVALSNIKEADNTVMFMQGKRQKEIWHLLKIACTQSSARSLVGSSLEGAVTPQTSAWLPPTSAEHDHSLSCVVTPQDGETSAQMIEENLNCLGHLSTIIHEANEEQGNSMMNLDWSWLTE
- SETTINGS: at 0.1 µM
ASSAY READOUT: inhibition (%)
Answer format: numeric, % implied, no suffix.

These solved cases illustrate the format of a correct answer.
>>> print(df.to_string())
                                   molecule  data_value
0  CN1CCN(CCCNc2nc3ccc(Oc4ccc(NC(=O)Nc5cc(C(F)(F)F)ccc5F)cc4)cc3[nH]2)CC1        3.44
1  Cc1nnc(-c2ccc(C)c(-c3ccc(C(=O)NCc4ccc(Cl)cc4)cc3)c2)o1        8.21
2  COc1cc2ncn(-c3cc(OCc4ccccc4C(F)(F)F)c(C(C)=O)s3)c2cc1OC        2.23
3  C#Cc1cccc(Nc2ncnc3ccc(OCCCCNCCS(C)(=O)=O)cc23)c1        5.89
4  CCc1ccc(Oc2nccc(-c3c(-c4ccc(F)cc4)ncn3C3CCNCC3)n2)cc1       -3.32

[ask] State the recorded inhibition for this entry: CN(c1ccc(NC(=O)Nc2c(Cl)cccc2Cl)cc1)c1ccnc(Nc2cccc(CS(C)(=O)=O)c2)n1
[reply] -7.42

[ask] What about this molecule? C/C(Nc1ccc(S(N)(=O)=O)cc1)=C1/C(=O)Nc2ccccc21
[reply] 4.91

[ask] What about this molecule? CNC(=O)c1cncc(/C=C/c2c(C)cccc2C)c1
[reply] 2.95

[ask] What about this molecule? CS(=O)(=O)CCNCc1ccc(-c2ccc3ncnc(Nc4ccc(OCc5ccccc5)c(Br)c4)c3c2)o1
[reply] 3.37

[ask] What about this molecule? COc1cccc(-n2cnc3c(N/N=C/c4ccncc4)ncnc32)c1
[reply] 0.84

[ask] What about this molecule? CCC(=O)Nc1ccc(C)c(-c2ccc(C(=O)NCC3CC3)cc2)c1
[reply] 10.5

[ask] What about this molecule? COC(=O)Nc1nc2ccc(Sc3ccc(NC(=O)Nc4cc(C(F)(F)F)ccc4F)cc3)cc2[nH]1
[reply] 2.75

[ask] What about this molecule? O=C(Nc1n[nH]c2nc(-c3ccco3)ccc12)C1CC1
[reply] 4.36

[ask] What about this molecule? FC(F)(F)c1cccc(Nc2nccc(-c3cnn4nc(-c5ccccc5)ccc34)n2)c1
[reply] 1.94

[ask] What about this molecule? N#Cc1ccc(Oc2nccc(-c3c(-c4ccc(F)cc4)ncn3C3CCNCC3)n2)cc1
[reply] 11.3

[ask] What about this molecule? CCS(=O)(=O)c1ccc(OC)c(Nc2ncc(-c3cccc(-c4ccccc4F)c3)o2)c1
[reply] 3.18

[ask] What about this molecule? Cc1ccc(C(=O)NC(C)C)cc1-c1ccc(C(=O)NCC2CC2)cc1
[reply] 2.97

[ask] What about this molecule? Nc1nccc(-c2c(-c3ccc(F)cc3)ncn2C2CCC(O)CC2)n1 (stereo unspecified)
[reply] 2.77
